- Test Summary: gradient 5% acetonitrile 3 min, to 50% in 2 min, to 85% in 15 min, held 3 min, 100 µL/min
- Condition Set: column: Zorbax Extend-C18 2.1 x 50 mm; eluents: water / acetonitrile, 0.1% formic acid
Experimental Endpoint: RP-LC retention time (s)
// units = s; emit number, no label

For orientation, consider the following solved cases.
{"Compound": "CCn1c(SCC(=O)Nc2nc(-c3ccccc3)cs2)nnc1-c1cc2ccccc2o1", "RP-LC retention time (s)": 1070}
{"Compound": "CC1CCN(Cc2csc(N3CCN(C(=O)c4ccc(C#N)cc4)CC3)n2)CC1", "RP-LC retention time (s)": 638}
{"Compound": "Cc1nnc(N2CCCC(C(=O)NCCN3CCCC3)C2)c2nn(-c3ccc(Cl)cc3)c(C)c12 (centres undefined)", "RP-LC retention time (s)": 591}

Any idea what RP-LC retention time was measured for `O=C(Cn1nc(S(=O)(=O)c2ccc(Cl)cc2)ccc1=O)N1CCN(c2ccccc2F)CC1` ? 937

What does the record list as RP-LC retention time for `CCS(=O)(=O)c1nc2ccc(NS(=O)(=O)c3ccc(C4CCCCC4)cc3)cc2s1` ? 1120

---

- Test Summary: gradient 5% acetonitrile 3 min, to 50% in 2 min, to 85% in 15 min, held 3 min, 100 µL/min
- Condition Set: column: Zorbax Extend-C18 2.1 x 50 mm; eluents: water / acetonitrile, 0.1% formic acid
Below is a list of entries, each paired with its recorded RP-LC retention time value.
Give your result as the value with the unit written after it.

{"Compound": "CCOc1ccc(C2C(=O)N(C3CCCCCC3)CC(=O)N2Cc2ccco2)cc1OC (stereo not given)", "RP-LC retention time": "963 s"}
{"Compound": "O=C(NCCCc1ccccc1)C1CCCN(c2ccc(=O)n(-c3cccc(Cl)c3)n2)C1 (stereo not given)", "RP-LC retention time": "926 s"}
{"Compound": "Cc1ccc(C)c(N2CCN(c3ccnc(SCC(=O)Nc4cccc(Cl)c4)n3)CC2)c1", "RP-LC retention time": "999 s"}
{"Compound": "CCOc1ccc(Nc2nc(C(=O)Nc3ccc(S(N)(=O)=O)cc3)cs2)cc1", "RP-LC retention time": "761 s"}

Given the entry `CCNc1nc(N2CCN(C3CCCCC3)CC2)nc2c1cnn2C` , report its measured RP-LC retention time. 614 s

---

- Test Summary: gradient 5% acetonitrile 3 min, to 50% in 2 min, to 85% in 15 min, held 3 min, 100 µL/min
- Condition Set: column: Zorbax Extend-C18 2.1 x 50 mm; eluents: water / acetonitrile, 0.1% formic acid
Experimental Endpoint: RP-LC retention time (s)
Kindly provide the numeric value in s only, without the unit symbol.

These recorded examples may help you get a feel for the data.
{"Molecule": "CCn1cc(-c2nc(C)c(C(=O)NCc3ccc(OC)cc3)s2)c2cccnc21", "RP-LC retention time, s": 902}
{"Molecule": "CC1(C)CC(=O)C2=C(C1)N(Cc1ccco1)C(=O)C2(NC(=O)CCc1ccccc1)C(F)(F)F (stereo not given)", "RP-LC retention time, s": 996}
{"Molecule": "Cc1nc(C)c(C(=O)N2CCCC2c2nc(-c3ccc(F)cc3F)no2)s1 (stereo not given)", "RP-LC retention time, s": 837}
{"Molecule": "CN(C)C(=O)c1ccc2c(c1)nnn2CCNC(=O)Nc1cccc(Br)c1", "RP-LC retention time, s": 678}

Now for another entry.
Entry under review: COC(=O)c1[nH]c(C)c(C(=O)C(C)N(C(=O)c2ccc(C)cc2)C2CCCCC2)c1C (stereo not given) . Reported RP-LC retention time? 1050
